Assign CC50 to each entry below.
Test system: C8166
Experiment: Concentration of compound that inhibits incorporation of radiolabeled amino acids by 50 %
Assay type: functional
Settings: Homo sapiens, read-out: CD50 (the source's name)
Give bare numbers, in µM.

Quick request: CC50 for each listed item, please.
1. Nc1ccn([C@@H]2O[C@H](CO)C[C@@H]2F)c(=O)n1
2. Nc1ccn([C@H]2CC[C@@H](CO)O2)c(=O)n1
3. Nc1ccn([C@@H]2O[C@H](CO)C=C2F)c(=O)n1

RESULT:
500
1000
30

----------
System: C8166
Experiment: Concentration of compound that inhibits incorporation of radiolabeled amino acids by 50 %
Assay type: functional
Conditions: Homo sapiens, read-out: CD50 (the source's name)
experimental.readout: CC50

Recorded CC50, per entry:
[
  {
    "compound": "Cc1cn([C@H]2C[C@H](N=[N+]=[N-])[C@@H](CO)O2)c(=O)[nH]c1=O",
    "target.of.assay": "C8166",
    "observed.result": "> 1000 µM"
  },
  {
    "compound": "Cc1cn([C@@H]2O[C@H](CO)C=C2F)c(=O)[nH]c1=O",
    "target.of.assay": "C8166",
    "observed.result": "> 1000 µM"
  }
]

We now examine a further compound.
QUERY: Report CC50 for Nc1ccn(C2OC(CO)C(F)C2F)c(=O)n1 (stereo not drawn) tested on C8166.
RESULT: > 100 µM
